Values compiled from patent US9365502B2.

biological target: picrotoxin binding site on GABAA receptors; test: [35S]-TBPS displacement (inhibition of [35S]-TBPS binding); conditions: mean ± SEM, duplicate experiments performed in triplicate
Decide using IC50 alone. Strictly below 100 nM: met. Equal to or above 100 nM: not met.

Below, 3 compounds whose answers are already recorded.
compound | class
CC(=O)[C@@H]1CC[C@@H]2C[C@H]3[C@@H](CC[C@H]4C[C@H](O)CC[C@@H]43)C[C@]21C [MQ-50] | not met
C[C@@]12CC3CC[C@H]4C[C@H](O)CCC4C3CC1CCC2=O (stereo partly drawn) [MQ-47] | not met
C[C@@]12CC[C@H](O)C[C@H]1CC[C@@H]1C[C@]3(C)C(C#N)=CCC3CC12 (stereo partly drawn) [MQ-86] | met

Decide: IC50 of C[C@@]12CC3CCC4C[C@H](O)CCC4C3CC1CC[C@]21CO1 (stereo partly drawn) [MQ-54] strictly below 100 nM? not met

###

Target: rat α1β2γ2L type GABAA receptors expressed in Xenopus laevis oocytes (Rattus norvegicus (Rat), UniProt P62813+P63138, INS375LLRMFSFK)
Assay: Potentiation of GABA-mediated chloride currents, oocyte electrophysiology
Type: cell-based
Conditions: 10 μM compound, 2 μM GABA, ± SEM, N>=4
Experimental: The compounds of the present disclosure were evaluated for the ability to potentiate chloride currents mediated by 2 μM GABA at rat α1β2γ2L type GABAA receptors expressed in Xenopus laevis oocytes and the results are shown in Table 2. The GABA concentration used for the control response was 2 μM. Each compound was evaluated on at least four different oocytes at the concentrations indicated, and the results reported are the ratio of currents measured in the presence/absence of added compound. […]
Answer each item with its documented Oocyte electrophysiology 10 μM (ratio of currents in presence/absence of compound).
Answers are plain numbers.

A selection of reference data follows.
compound | value
C[C@@]12CC3CCC4C[C@H](O)CCC4C3CC1CC[C@H]2C#N (some centres unmarked) [MQ-49] | 1.86
C[C@@]12CC[C@H](O)C[C@H]1CC[C@@H]1C[C@@]3(C)C(CC[C@@H]3C#N)CC12 (some centres unmarked) [MQ-87] | 16.10
C[C@@]12CC[C@@H](O)C[C@@H]1CC[C@H]1C[C@@]3(C)[C@H](CC[C@@]34CO4)C[C@@H]12 [MQ-85] | 17.18
C[C@@]12CC3CC[C@H]4C[C@H](O)CCC4C3CC1CCC2=O (some centres unmarked) [MQ-47] | 6.42
C[C@@]12C[C@@H]3CC[C@@H]4C[C@H](O)CC[C@@H]4[C@H]3C[C@H]1CCC2=O [MQ-51] | 1.59
C[C@]12C[C@H]3CC[C@@H]4C[C@@H](O)CC[C@H]4[C@@H]3C[C@@H]1CC/C2=C\C#N [MQ-32] | 8.77

For the 8 compounds below, give their Oocyte electrophysiology 10 μM (ratio of currents in presence/absence of compound) values.
1. C[C@@]12CC3CCC4C[C@H](O)CCC4C3CC1CC[C@]21CO1 (some centres unmarked) [MQ-54]
2. CC(=O)[C@@H]1CC[C@@H]2C[C@H]3[C@@H](CC[C@H]4C[C@H](O)CC[C@@H]43)C[C@]21C [MQ-50]
3. C[C@@]12CC[C@H](O)C[C@H]1CC[C@@H]1C[C@]3(C)C(C#N)=CCC3CC12 (some centres unmarked) [MQ-86]
4. C[C@]12C[C@H]3CC[C@@H]4C[C@@H](O)CCC4C3CC1CC[C@@]21CO1 (some centres unmarked) [MQ-37]
5. CC(=O)[C@H]1CCC2CC3C(CCC4C[C@H](O)CCC43)C[C@@]21C (some centres unmarked) [MQ-39]
6. C[C@@]12CC[C@H](O)C[C@@H]1CC[C@@H]1C[C@]3(C)C(=O)CCC3C[C@H]12 (some centres unmarked) [MQ-83]
7. C[C@]12C[C@H]3CC[C@@H]4C[C@@H](O)CC[C@H]4[C@@H]3C[C@@H]1CC/C2=C/C#N [MQ-31]
8. C[C@]12C[C@H]3CC[C@@H]4C[C@@H](O)CC[C@H]4[C@@H]3C[C@@H]1CC[C@@H]2[N+](=O)[O-] [MQ-33]

1. 11.41
2. 1.98
3. 19.64
4. 27.57
5. 7.91
6. 6.35
7. 8.25
8. 9.08
